- Tested on: NCI-H226 lung
- measurement.protocol: NCI tumour cell line growth inhibition, 48 h
Where a SMILES comes first, the peptide text is derived from it. [ ]: non-standard residue; d: D form. The star is where a group is joined. ξ: configuration not given here. Propanoyl(3-(4-MeO-Ph)) = COc1ccc(CCC(=O)*)cc1; Thr(3ξ) = CC(O)[C@H](N)C(=O)O; dNMeL = CN[C@H](CC(C)C)C(=O)O; ξLac = CC(O)C(=O)O

compound	units.label	comparison.symbol	TGI
CN1C(=O)C(=Cc2cn(Cc3ccccc3)c3ccccc23)C(=O)N(C)C1=O	µM	=	27.8
O=C(NC12CC3CC(CC(C3)C1)C2)C(=O)c1c[nH]c2ccc([N+](=O)[O-])cc12	µM	=	63.6
CC(C)(C)c1cc(/C=C/C(=O)CC(=O)/C=C/c2cc(C(C)(C)C)c(O)c(C(C)(C)C)c2)cc(C(C)(C)C)c1O	µM	>	50
S=c1nc2sc3c(c2c(Nc2ccc(Br)cc2)[nH]1)CCN(N1CCc2c(sc4nc(=S)[nH]c(Nc5ccc(Br)cc5)c24)C1)C3	µM	>	50
Cc1cc(C)c2c(=N)c3ccccc3n(CCCCCCn3c4ccccc4c(=N)c4c(C)cc(C)nc43)c2n1	µM	=	2.85
COC(=O)[C@@]12OC[C@]34C([C@@H](O)C1O)[C@@]1(C)CC(=O)C(O)=C(C)C1C[C@H]3OC(=O)[C@H](OC(=O)/C=C(/c1ccccc1)C(F)(F)F)[C@H]42 (some centres undefined)	µM	=	11.7
COc1ccc(-c2nnc(-c3c(C)n(C)n(-c4ccccc4)c3=O)o2)cc1	µM	>	100
CNC(=O)c1ccccc1[S+]1c2cccc3cccc(c23)C(=O)N1C (centres undefined)	µM	>	100
COc1ccc2nc3cc([N+](=O)[O-])ccc3c(NCCCN(CCO)CCO)c2c1	µM	=	21.5
CCNc1cc2c3c(c1)CCCN3CCC2	µM	=	41.9
CC(=O)OC1CC[C@@]2(C)C(CC[C@]3(C)C2CC=C2[C@@H]4CC(C)(C)CCC4(C)CCC23C)[C@@]1(C)C(=O)O (some centres undefined)	µM	=	50.2
CO[C@H]1C[C@H](n2cc(C)c(=O)[nH]c2=O)O[C@@H]1CO	µM	>	100
C[C@@H](NC(=O)[C@@H](CC(=O)N1CCC(N2CCCCC2)CC1)N1C(=O)[C@@H](N2C(=O)OC[C@@H]2c2ccccc2)[C@H]1/C=C/c1cccc(Cl)c1)c1ccccc1	µM	=	31.2
COc1ccc2c(c1)CC1(O)COc3cc(OC)ccc3C1O2 (centres undefined)	µM	>	100
Cc1cc([N+](=O)[O-])ccc1NS(=O)(=O)c1cc(Cl)ccc1Cl	µM	=	14.3
CNc1ncnc2c1nnn2C	µM	>	100
COc1ccc(NCc2cnc3nc(N)nc(N)c3c2C)cc1	µM	>	93.9
O=C1C2=C(CCCCC2)C2CCCCC12O (centres undefined)	µM	>	100
O=c1oc(-c2ccccc2)cc2cccc(O)c12	µM	=	51
CC(C)(O)[C@@H]1CC[C@@]2(C)CCC[C@H](O)[C@H]2C1	µM	>	100
Nc1nc(NC2C=C(CO)C(O)C2O)c([N+](=O)[O-])c(=O)[nH]1 (centres undefined)	µM	>	100
CCCCN=C(NC#N)N(Cc1ccccc1)Cc1ccccc1	µM	>	100
Cc1cc(Oc2cnc(=O)[nH]c2)cs1	µM	>	100
COc1ccc(C2=Nc3c/c(=C\c4c(O)[nH]c5ccc(Cl)cc45)ccc3=N2)cc1	µM	=	37
COC(=O)[C@@H](NC(=O)[C@@H](CC(C)C)N(C)C(=O)[C@@H]1CCCN1C(=O)C(C)O)C(C)OC(=O)CCc1ccc(OC)cc1 (some centres undefined) (H-[ξLac]P[dNMeL][Thr(3ξ)](Propanoyl(3-(4-MeO-Ph)))-OMe)	µM	>	100
CCCCOC(=O)c1ccc(NC(=O)CCl)cc1	µM	=	23.1
CCOc1ccccc1N1C(=O)C(=O)C(c2nc3ccccc3o2)/C(=N\N)C1=O (centres undefined)	µM	>	100
N#Cc1ccc(Nc2cnc3ccc(N)cc3n2)cc1	µM	>	100
COc1cc(O)c2c(=O)c(OC)c(-c3ccc4c(c3)OCO4)oc2c1OC	µM	>	50
COC(=O)c1c(O)ccc2c1c1c(n2Cc2ccccc2OC)C(=O)c2ccccc2C1	µM	>	100
CCn1c2ccc(C(=O)CCCN(C)C)cc2c2cc(C(=O)CCCN(C)C)ccc21	µM	=	8.61
COc1cc(/C=c2/c3ccccc3n3c2cc(-c2ccccc2)[n+]3C)cc(OC)c1OC	µM	=	32.8
CCC/C(Cl)=N\OC(=O)Nc1ccc(F)c([N+](=O)[O-])c1	µM	=	55.7
Cc1oncc1NC1=CC(=O)C(=O)c2ccccc21	µM	=	39.4
O=C(/C=C/c1cccc([N+](=O)[O-])c1)c1ccc(O)c(CN2CCN(c3cc4c(cc3F)c(=O)c(C(=O)O)cn4C3CC3)CC2)c1	µM	=	15.2
CSc1nc(SC)c2c(C(N)=S)[nH]nc2n1	µM	=	62.6
COc1cccc2c1-c1c(OC)cccc1SS2	µM	=	42.7
CCCCC1(N=[N+]=[N-])C(=O)C2C=CC=C3c4ccccc4N(C1=O)C32 (centres undefined)	µM	>	31.6
O=C(Cn1c(=O)oc2ccc(C(=O)c3ccccc3Cl)cc21)c1ccc([N+](=O)[O-])cc1	µM	>	100
